Just for reference, patent US7094869B2 is where these values come from.

subject of test: rat pituitary cells (Rattus norvegicus, UniProt O08725)
Sequence (O08725 whole entry): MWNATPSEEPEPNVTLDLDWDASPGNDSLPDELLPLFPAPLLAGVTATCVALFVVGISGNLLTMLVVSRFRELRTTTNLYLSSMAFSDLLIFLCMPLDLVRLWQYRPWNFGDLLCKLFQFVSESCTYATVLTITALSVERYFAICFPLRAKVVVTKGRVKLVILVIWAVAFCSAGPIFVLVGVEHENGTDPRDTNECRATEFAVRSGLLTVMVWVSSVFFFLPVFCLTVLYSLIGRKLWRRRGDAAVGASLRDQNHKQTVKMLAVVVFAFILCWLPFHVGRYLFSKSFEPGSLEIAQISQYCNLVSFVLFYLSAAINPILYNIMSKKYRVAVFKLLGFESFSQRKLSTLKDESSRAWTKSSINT
test conditions: read-out: PIT Cell EC50; Table III, formula IV compounds; GH release, 15 min incubation
pEC50: −log10 of the molar value. Non-standard residues stand in square brackets, D forms with d. Residues, ends and D or L forms follow the SMILES beside them. ξ: configuration not given here. *: point of attachment. 1Nal = N[C@@H](Cc1cccc2ccccc12)C(=O)O; d2Nal = N[C@H](Cc1ccc2ccccc2c1)C(=O)O; ξNMe2Nal = CNC(Cc1ccc2ccccc2c1)C(=O)O; Acetyl(4-pyridyl) = O=C(Cc1ccncc1)*; ξ2Nal = NC(Cc1ccc2ccccc2c1)C(=O)O; Inp = O=C(O)C1CCNCC1; ξK = NCCCCC(N)C(=O)O
Hi, to clarify the labels: Condition met covers pEC50 from 9 upward, Condition not met covers anything below 9.

[[record]]
compound = "CN(C(=O)C1CCNCC1)C(Cc1ccc2ccccc2c1)C(=O)N[C@H](Cc1c[nH]c2ccccc12)C(=O)N[C@@H](Cc1ccccc1)C(=O)NC(CCCCN)C(N)=O (stereo partly drawn) [(inip) nmb w F K amide, (inip)-(N-Me-DβNal)-DTrp-Phe-Lys-amide] (H-[Inp][ξNMe2Nal][dW]F[ξK]-NH2)"
subject_of_test = "rat pituitary cells (Rattus norvegicus, UniProt O08725)"
category_label = "Condition met"

[[record]]
compound = "NCCCCC(NC(=O)[C@H](Cc1cccc2ccccc12)NC(=O)[C@@H](Cc1ccc2ccccc2c1)NC(=O)C(Cc1ccc2ccccc2c1)NC(=O)C1CCNCC1)C(N)=O (stereo partly drawn) [(inip) b b npA K amide, (inip)-DβNal-DβNal-αNal-Lys-amide] (H-[Inp][ξ2Nal][d2Nal][1Nal][ξK]-NH2)"
subject_of_test = "rat pituitary cells (Rattus norvegicus, UniProt O08725)"
category_label = "Condition met"

[[record]]
compound = "C[C@H](N)C(=O)N[C@H](Cc1ccc2ccccc2c1)C(=O)N[C@H](Cc1ccc2ccccc2c1)C(=O)N[C@@H](Cc1ccccc1)C(=O)N[C@@H](CCCCN)C(N)=O [A b b F K amide] (H-A[d2Nal][d2Nal]FK-NH2)"
subject_of_test = "rat pituitary cells (Rattus norvegicus, UniProt O08725)"
category_label = "Condition not met"

[[record]]
compound = "NCCCC[C@H](NC(=O)[C@H](Cc1ccccc1)NC(=O)[C@@H](Cc1c[nH]c2ccccc12)NC(=O)[C@@H](Cc1c[nH]c2ccccc12)NC(=O)[C@@H](N)Cc1c[nH]cn1)C(N)=O [H w w F K amide] (H-H[dW][dW]FK-NH2)"
subject_of_test = "rat pituitary cells (Rattus norvegicus, UniProt O08725)"
category_label = "Condition not met"

[[record]]
compound = "NCCCC[C@H](NC(=O)[C@H](Cc1ccccc1)NC(=O)[C@@H](Cc1ccc2ccccc2c1)NC(=O)[C@@H](Cc1ccc2ccccc2c1)NC(=O)Cc1ccncc1)C(N)=O [(pac) b b F K amide] ({Acetyl(4-pyridyl)}-[d2Nal][d2Nal]FK-NH2)"
subject_of_test = "rat pituitary cells (Rattus norvegicus, UniProt O08725)"
category_label = "Condition not met"

[[record]]
compound = "CNC(=O)[C@@H](Cc1ccccc1)NC(=O)[C@@H](Cc1ccc2ccccc2c1)NC(=O)[C@@H](Cc1ccc2ccccc2c1)NC(=O)C1CCNCC1 [(inip) b b f mam] (H-[Inp][d2Nal][d2Nal][dF]-NHMe)"
subject_of_test = "rat pituitary cells (Rattus norvegicus, UniProt O08725)"
category_label = "Condition not met"

